- TEST_METHOD_NOTES: DAP stability assay in human liver S9
- Type: in vitro ADME
- CONDITION_NOTES: pooled human liver S9 fraction, 37 °C, read-out: Recovery of the molecule after incubation

COMPOUND: Nc1nc(N)c2[nH]cnc2n1 [DAP, 2,6-diaminopurine]
recovery at 4 h, 300 µM: > 80%

---

- Tested on: firefly luciferase (Fluc) gene with UGA nonsense codon at position 109 in HeLa cells
- TEST_METHOD_NOTES: Firefly luciferase readthrough assay, UGA PTC construct
- Format: cell-based, human
- CONDITION_NOTES: Homo sapiens, Fig. 1D, authors' reply in peer review file, removed from final text
pEC50: −log10 of the molar value.
PROPERTY_MEASURED: pEC50

SMILES_REPR: Nc1nc(N)c2[nH]cnc2n1
TARGET_OR_TEST_SYSTEM: firefly luciferase (Fluc) gene with UGA nonsense codon at position 109 in HeLa cells
PROPERTY_MEASURED: pEC50
READING: ~4.30
